Item-by-item account of melting point
Write it as a number; the unit °C goes unstated.

Here's what some known entries look like.
CHEMICAL STRUCTURE | UNIT ABBREV | melting point
Cc1coc(C(=O)c2ccc(F)c(F)c2Nc2ccc(I)cc2F)n1 | °C | 127
C#Cc1ccc(Nc2c(C(=O)c3nccn3C)ccc(F)c2F)c(F)c1 | °C | 166

Asked: Using the record for C#Cc1ccc(Nc2c(C(=O)c3nccs3)ccc(F)c2F)c(F)c1 , report its melting point.
Given back: 161

###

Item-by-item account of melting point

CHEMICAL STRUCTURE | melting point
C#Cc1ccc(Nc2c(C(C)=O)ccc(F)c2F)c(F)c1 | 78 to 80 °C
C#Cc1ccc(Nc2c(C(=O)c3ccccn3)ccc(F)c2F)c(F)c1 | 109 to 111 °C

Please turn your attention to the following entry.
Asked: Using the record for O=C(CO)c1ccc(F)c(F)c1Nc1ccc(I)cc1F , report its melting point.
Given back: 128 to 128.5 °C
